target: T1, recombinant human IL-6 (human, UniProt P05231 30-212); assay: SPR (Biacore), supernatant IgG on Protein A, 25 C
T1 construct: Flowed in solution over the captured antibodies
T1 sequence (P05231 30-212 limits assumed): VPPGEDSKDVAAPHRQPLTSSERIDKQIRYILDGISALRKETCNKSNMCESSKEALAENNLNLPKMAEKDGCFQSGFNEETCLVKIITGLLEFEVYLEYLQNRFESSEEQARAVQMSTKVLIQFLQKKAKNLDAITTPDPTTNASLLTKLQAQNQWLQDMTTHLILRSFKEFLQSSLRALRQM
# binarize koff: threshold 0.0002 s⁻¹ inclusive, high side met, low side not met

Would you say anti-IL-6 antibody, heavy chain Y103D, light chain WT (antibody, IgG1, V domains shown, Full IgG1 tested; V domains derived as in m2) VH: EVQLVESGGGLVQPGGSLRLSCAASGFTFSPFAMSWVRQAPGKGLEWVAKISPGGSWTYYSDTVTGRFTFSLDTSKSTAYLQMNSLRAEDTAVYYCARQLWGDYALDIWGQGTLVTVSS VL: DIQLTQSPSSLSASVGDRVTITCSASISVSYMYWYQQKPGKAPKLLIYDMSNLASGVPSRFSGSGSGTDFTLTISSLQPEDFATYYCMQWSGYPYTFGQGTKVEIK shows koff at minimum 0.0002 s⁻¹?
met

Hello, I need to know if anti-IL-6 antibody, heavy chain T58R, light chain WT (antibody, IgG1, V domains shown, Full IgG1 tested; V domains derived as in m2) VH: EVQLVESGGGLVQPGGSLRLSCAASGFTFSPFAMSWVRQAPGKGLEWVAKISPGGSWRYYSDTVTGRFTFSLDTSKSTAYLQMNSLRAEDTAVYYCARQLWGYYALDIWGQGTLVTVSS VL: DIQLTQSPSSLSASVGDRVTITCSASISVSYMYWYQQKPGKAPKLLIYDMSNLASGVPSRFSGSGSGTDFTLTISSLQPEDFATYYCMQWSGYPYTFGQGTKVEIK has measured koff not below 0.0002 s⁻¹. Thanks!
not met

Dear colleague, could you confirm whether anti-IL-6 antibody, heavy chain T58K, light chain WT (antibody, IgG1, V domains shown, Full IgG1 tested; V domains derived as in m2) VH: EVQLVESGGGLVQPGGSLRLSCAASGFTFSPFAMSWVRQAPGKGLEWVAKISPGGSWKYYSDTVTGRFTFSLDTSKSTAYLQMNSLRAEDTAVYYCARQLWGYYALDIWGQGTLVTVSS VL: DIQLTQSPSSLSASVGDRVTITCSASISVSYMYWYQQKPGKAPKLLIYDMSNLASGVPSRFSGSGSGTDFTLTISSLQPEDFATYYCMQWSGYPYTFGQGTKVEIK has koff at or above 0.0002 s⁻¹?
not met

Tell me whether koff is at least 0.0002 s⁻¹ here: anti-IL-6 antibody, heavy chain G26S, light chain WT (antibody, IgG1, V domains shown, Full IgG1 tested; V domains derived as in m2) VH: EVQLVESGGGLVQPGGSLRLSCAASSFTFSPFAMSWVRQAPGKGLEWVAKISPGGSWTYYSDTVTGRFTFSLDTSKSTAYLQMNSLRAEDTAVYYCARQLWGYYALDIWGQGTLVTVSS VL: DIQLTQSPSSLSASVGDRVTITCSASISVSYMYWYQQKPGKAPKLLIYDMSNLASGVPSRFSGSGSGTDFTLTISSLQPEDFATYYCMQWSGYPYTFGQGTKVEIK
not met

Hi, just wondering whether anti-IL-6 antibody, heavy chain V48Q, light chain WT (antibody, IgG1, V domains shown, Full IgG1 tested; V domains derived as in m2) VH: EVQLVESGGGLVQPGGSLRLSCAASGFTFSPFAMSWVRQAPGKGLEWQAKISPGGSWTYYSDTVTGRFTFSLDTSKSTAYLQMNSLRAEDTAVYYCARQLWGYYALDIWGQGTLVTVSS VL: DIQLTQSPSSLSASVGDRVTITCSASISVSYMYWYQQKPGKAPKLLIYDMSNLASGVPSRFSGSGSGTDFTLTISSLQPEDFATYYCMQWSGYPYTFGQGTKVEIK shows koff of 0.0002 s⁻¹ or higher.
not met

State whether the measured koff reaches 0.0002 s⁻¹, counting equality as reaching it, for anti-IL-6 antibody, heavy chain WT, light chain S28E (antibody, IgG1, V domains shown, Full IgG1 tested; V domains derived as in m2) VH: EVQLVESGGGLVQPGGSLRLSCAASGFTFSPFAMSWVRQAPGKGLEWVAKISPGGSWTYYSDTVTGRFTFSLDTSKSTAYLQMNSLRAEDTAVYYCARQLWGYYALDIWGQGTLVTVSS VL: DIQLTQSPSSLSASVGDRVTITCSASIEVSYMYWYQQKPGKAPKLLIYDMSNLASGVPSRFSGSGSGTDFTLTISSLQPEDFATYYCMQWSGYPYTFGQGTKVEIK
not met

Say whether anti-IL-6 antibody, heavy chain WT, light chain I27F (antibody, IgG1, V domains shown, Full IgG1 tested; V domains derived as in m2) VH: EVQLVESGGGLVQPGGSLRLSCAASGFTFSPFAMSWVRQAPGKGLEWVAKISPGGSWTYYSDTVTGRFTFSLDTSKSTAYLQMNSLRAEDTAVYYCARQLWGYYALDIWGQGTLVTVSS VL: DIQLTQSPSSLSASVGDRVTITCSASFSVSYMYWYQQKPGKAPKLLIYDMSNLASGVPSRFSGSGSGTDFTLTISSLQPEDFATYYCMQWSGYPYTFGQGTKVEIK shows koff of 0.0002 s⁻¹ or more.
not met
